Attribution: paper PMC8958504

test system: NRF2-ARE signaling pathway; assay: cells; format: cell-based; details: Arec32, 24 h, read-out: NRF2 (CD, μM), concentration required to double luciferase activity, AREc32 cells, 24 h
Please provide measured EC (2-fold induction) for the entries that follow.
Answers are plain numbers, in µM.

compound: N#Cc1cccc(/C=C/c2n[nH]c(=O)o2)c1
measured-on: NRF2-ARE signaling pathway
unit-annotation: µM
measured: 13.7

The compound C[S+]([O-])CCCCN=C=S (stereo not drawn) [sulforaphane, reference compound] , tested on NRF2-ARE signaling pathway, showed EC (2-fold induction) of 1.24

----------
molecular target: hMAO-B (Homo sapiens, UniProt P27338); assay: biochemical; details: read-out: hMAO-B (IC50); recombinant hMAO-B, p-tyramine substrate
Sequence (P27338 whole entry): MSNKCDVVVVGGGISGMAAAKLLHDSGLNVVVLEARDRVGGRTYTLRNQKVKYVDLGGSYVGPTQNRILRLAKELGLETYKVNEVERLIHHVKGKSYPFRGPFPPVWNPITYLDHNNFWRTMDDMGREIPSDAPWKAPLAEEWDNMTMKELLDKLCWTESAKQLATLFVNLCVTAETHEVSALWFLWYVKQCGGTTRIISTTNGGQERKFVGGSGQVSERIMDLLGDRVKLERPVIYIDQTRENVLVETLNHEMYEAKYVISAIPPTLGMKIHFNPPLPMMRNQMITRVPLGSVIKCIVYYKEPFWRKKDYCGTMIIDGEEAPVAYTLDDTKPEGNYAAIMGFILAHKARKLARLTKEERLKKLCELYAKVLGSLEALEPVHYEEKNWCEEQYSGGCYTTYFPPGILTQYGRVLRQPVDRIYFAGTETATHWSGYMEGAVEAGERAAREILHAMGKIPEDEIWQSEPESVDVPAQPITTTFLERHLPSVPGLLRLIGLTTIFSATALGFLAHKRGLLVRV
pIC50: −log10 of the molar value.
Decision: pIC50 >= 5 yields met, all other cases yield not met.

Solved cases below.
molecule: COc1ccc(OC)c(/C=C/c2n[nH]c(=O)o2)c1
assigned-label: not met
//
molecule: O=c1[nH]nc(/C=C/c2cc(O)cc(O)c2)o1
assigned-label: not met
//
molecule: COc1cc(/C=C/c2n[nH]c(=O)o2)cc(OC)c1OC
assigned-label: not met
//
molecule: COc1ccc(/C=C/c2n[nH]c(=O)o2)cc1OC
assigned-label: not met
//
molecule: C#CCNC(=O)/C=C/c1cccc(O)c1
assigned-label: not met

Here's the next entry for you.
Is reported pIC50 greater than or equal to 5 here: "COc1ccc(/C=C/c2n[nH]c(=O)o2)c(OC)c1" not met
